- experimentNotes: Cytotoxicity against human WI-38 cells assessed as inhibition of cell viability incubated for 24 hrs by MTT assay
- Format: toxicity, cell-based
experimentalEndpoint: IC50 at 24 h

For orientation, consider the following solved cases.
[
  {
    "compound": "CC(=O)OC[C@@H]1OC(n2cc(COC(=O)[C@@]3(C)CC[C@]4(C)CC[C@]5(C)C(=CC(=O)[C@@H]6[C@@]7(C)CC[C@H](OC(=O)CCc8ccccc8)C(C)(C)C7CC[C@]65C)[C@H]4C3)nn2)[C@H](OC(C)=O)[C@H](OC(C)=O)[C@@H]1OC(C)=O (stereo not given in full)",
    "experimentalEndpoint": "IC50 at 24 h",
    "endpointValue": "590 µM"
  },
  {
    "compound": "COC(=O)[C@@]1(C)CC[C@]2(C)CC[C@]3(C)C(=CC(=O)[C@@H]4[C@@]5(C)CC[C@H](OCc6cn(C7O[C@H](COC(C)=O)[C@H](OC(C)=O)[C@H](OC(C)=O)[C@H]7OC(C)=O)nn6)C(C)(C)C5CC[C@]43C)[C@H]2C1 (stereo not given in full)",
    "experimentalEndpoint": "IC50 at 24 h",
    "endpointValue": "96.4 µM"
  },
  {
    "compound": "CC(=O)OC[C@@H]1OC(n2cc(COC(=O)[C@@]3(C)CC[C@]4(C)CC[C@]5(C)C(=CC(=O)[C@@H]6[C@@]7(C)CC[C@H](OC(=O)CCc8ccccc8)C(C)(C)C7CC[C@]65C)[C@H]4C3)nn2)[C@@H](OC(C)=O)[C@H]1OC(C)=O (stereo not given in full)",
    "experimentalEndpoint": "IC50 at 24 h",
    "endpointValue": "348 µM"
  },
  {
    "compound": "COC(=O)[C@@]1(C)CC[C@]2(C)CC[C@]3(C)C(=CC(=O)[C@@H]4[C@@]5(C)CC[C@H](OCc6cn(C7O[C@H](COC(C)=O)[C@@H](OC(C)=O)[C@H](OC(C)=O)[C@@H]7OC(C)=O)nn6)C(C)(C)C5CC[C@]43C)[C@H]2C1 (stereo not given in full)",
    "experimentalEndpoint": "IC50 at 24 h",
    "endpointValue": "89.4 µM"
  },
  {
    "compound": "CC1(C)[C@@H](O[C@H]2O[C@H](C(=O)O)[C@@H](O)[C@H](O)[C@H]2O[C@@H]2O[C@H](C(=O)O)[C@@H](O)[C@H](O)[C@H]2O)CC[C@]2(C)[C@H]3C(=O)C=C4[C@@H]5C[C@@](C)(C(=O)O)CC[C@]5(C)CC[C@@]4(C)[C@]3(C)CC[C@@H]12",
    "experimentalEndpoint": "IC50 at 24 h",
    "endpointValue": "128 µM"
  },
  {
    "compound": "COC(=O)[C@@]1(C)CC[C@]2(C)CC[C@]3(C)C(=CC(=O)[C@@H]4[C@@]5(C)CC[C@H](OCc6cn(C7O[C@H](COC(C)=O)[C@@H](OC(C)=O)[C@H]7OC(C)=O)nn6)C(C)(C)C5CC[C@]43C)[C@H]2C1 (stereo not given in full)",
    "experimentalEndpoint": "IC50 at 24 h",
    "endpointValue": "93.9 µM"
  },
  {
    "compound": "CC(=O)OC[C@@H]1OC(n2cc(COC(=O)[C@@]3(C)CC[C@]4(C)CC[C@]5(C)C(=CC(=O)[C@@H]6[C@@]7(C)CC[C@H](OC(=O)CCc8ccccc8)C(C)(C)C7CC[C@]65C)[C@H]4C3)nn2)[C@@H](OC(C)=O)[C@H](OC(C)=O)[C@H]1OC(C)=O (stereo not given in full)",
    "experimentalEndpoint": "IC50 at 24 h",
    "endpointValue": "> 800 µM"
  },
  {
    "compound": "COC(=O)[C@@]1(C)CC[C@]2(C)CC[C@]3(C)C(=CC(=O)[C@@H]4[C@@]5(C)CC[C@H](OCc6cn(C7O[C@H](COC(C)=O)[C@@H](OC(C)=O)[C@H](OC(C)=O)[C@H]7OC(C)=O)nn6)C(C)(C)C5CC[C@]43C)[C@H]2C1 (stereo not given in full)",
    "experimentalEndpoint": "IC50 at 24 h",
    "endpointValue": "105 µM"
  },
  {
    "compound": "CC(=O)OC[C@@H]1OC(n2cc(COC(=O)[C@@]3(C)CC[C@]4(C)CC[C@]5(C)C(=CC(=O)[C@@H]6[C@@]7(C)CC[C@H](OC(=O)CCc8ccccc8)C(C)(C)C7CC[C@]65C)[C@H]4C3)nn2)[C@@H](OC(C)=O)[C@H](OC(C)=O)[C@@H]1OC(C)=O (stereo not given in full)",
    "experimentalEndpoint": "IC50 at 24 h",
    "endpointValue": "201 µM"
  }
]

Now for another entry.
Read the entry CC(=O)O[C@H]1[C@H](C)OC(n2cc(COC(=O)[C@@]3(C)CC[C@]4(C)CC[C@]5(C)C(=CC(=O)[C@@H]6[C@@]7(C)CC[C@H](OC(=O)CCc8ccccc8)C(C)(C)C7CC[C@]65C)[C@H]4C3)nn2)C[C@@H]1OC(C)=O (stereo not given in full) and write its reported IC50 at 24 h.
> 800 µM
